# measured.on: Angiotensin II receptor (AT-1) type-1 (Rattus norvegicus, UniProt P29089+P25095)
# test.details: Specific binding inhibition of [125I]AII to Angiotensin II receptor, type 1 in rat liver membrane
# Assay type: cell membranes
measured.property: IC50 (pM)

compound=CCCCc1nc(SC)c(C(=O)O)n1Cc1ccc(-c2ccccc2S(=O)(=O)NC(=O)c2ccccc2)cc1 reported_measurement=90

[A] CCCCc1nc(SC)c(C(=O)O)n1Cc1ccc(-c2ccccc2S(=O)(=O)NC(=O)OC)cc1
[B] CCCCc1nc(SC)c(C(=O)O)n1Cc1ccc(-c2ccccc2S(=O)(=O)/N=C(/S)NCCC)cc1
Param pair: A , B . Output: the one whose IC50 is numerically greater. Indicate which entry you chose by stating its label.
B
(B: 2100 pM, A: 900 pM)

====

# measured.on: Angiotensin II receptor (AT-1) type-1 (Rattus norvegicus) (UniProt P29089+P25095)
# test.details: Inhibition of pressor response induced by infusion of AII in rats when dose is administered intravenously
# Type: functional
measured.property: ID50 (mg/kg)

These recorded examples may help you get a feel for the data.
smiles_text=CCCCc1nc(SC)c(C(=O)O)n1Cc1ccc(-c2ccccc2S(=O)(=O)/N=C(/S)NCCC)cc1 measured_property=ID50 reported_measurement=1.15
smiles_text=CCCCc1nc(SC(F)F)c(C(=O)O)n1Cc1ccc(-c2ccccc2S(=O)(=O)NC(=O)NCCC)cc1 measured_property=ID50 reported_measurement=0.07
smiles_text=CCCCc1nc(SC)c(C(=O)NC)n1Cc1ccc(-c2ccccc2S(=O)(=O)NC(=O)NCCC)cc1 measured_property=ID50 reported_measurement=0.02
smiles_text=CCCCc1nc(S(C)(=O)=O)c(C(=O)O)n1Cc1ccc(-c2ccccc2S(=O)(=O)NC(=O)NCCC)cc1 measured_property=ID50 reported_measurement=0.06
smiles_text=CCCCc1nc(SC)c(C(=O)O)n1Cc1ccc(-c2ccccc2S(=O)(=O)NC(=O)OC)cc1 measured_property=ID50 reported_measurement=0.1
smiles_text=CCCCc1nc(SC)c(C(=O)OC(C)(C)C)n1Cc1ccc(-c2ccccc2S(=O)(=O)NC(=O)NCCC)cc1 measured_property=ID50 reported_measurement=0.1
smiles_text=CCCCc1nc(SC)c(C(=O)O)n1Cc1ccc(-c2ccccc2S(=O)(=O)NC(C)=O)cc1 measured_property=ID50 reported_measurement=0.13
smiles_text=CCCCc1nc(SC)c(C(=O)OCc2ccccc2)n1Cc1ccc(-c2ccccc2S(=O)(=O)NC(=O)NCCC)cc1 measured_property=ID50 reported_measurement=0.2

[A] CCCCc1nc(SC)c(C(=O)NCC(=O)O)n1Cc1ccc(-c2ccccc2S(=O)(=O)NC(=O)NCCC)cc1
[B] CCCCc1nc(Cl)c(C(=O)O)n1Cc1ccc(-c2ccccc2S(=O)(=O)NC(=O)NCCC)cc1
Identify the entry with the smaller ID50: A or B . Bench note: the answer is the label of the chosen record.
A

====

# measured.on: Angiotensin II receptor (AT-1) type-1 (Rattus norvegicus) (UniProt P29089+P25095)
# test.details: Inhibition of pressor response induced by infusion of AII in rats when dose is administered intravenously
# Assay type: functional
measured.property: ID50 (mg/kg)

smiles_text=CCCCc1nc(SC)c(C(=O)O)n1Cc1ccc(-c2ccccc2S(=O)(=O)NC(=O)c2ccccc2)cc1 measured_property=ID50 reported_measurement=0.4

[a] CCCCc1nc(SC)c(C(=O)NC(C)=O)n1Cc1ccc(-c2ccccc2S(=O)(=O)NC(=O)NCCC)cc1
[b] CCCCc1nc(SC)c(CO)n1Cc1ccc(-c2ccccc2S(=O)(=O)NC(=O)NCCC)cc1
Between item a and item b , which reported ID50 is smaller? Reply with the label of the item you choose.
a
(a: 0.09 mg/kg, b: 0.21 mg/kg)

[P] CCCCc1nc(SC)c(C(=O)NCC(=O)OC)n1Cc1ccc(-c2ccccc2S(=O)(=O)NC(=O)NCCC)cc1
[Q] CCCCc1nc(SCCCCO)c(C(=O)O)n1Cc1ccc(-c2ccccc2S(=O)(=O)NC(=O)NCCC)cc1
[R] CCCCc1nc(SC)c(C(=O)O)n1Cc1ccc(-c2ccccc2S(=O)(=O)NC(=O)Cc2ccccc2)cc1
[S] CCCCc1nc(Sc2cccs2)c(C(=O)O)n1Cc1ccc(-c2ccccc2S(=O)(=O)NC(=O)NCCC)cc1
Please list these in order of increasing ID50. Thank you! List each label, following the requested order.
P, Q, R, S
(P: 0.05 mg/kg, Q: 0.12 mg/kg, R: 0.44 mg/kg, S: 2.01 mg/kg)

====

# measured.on: Angiotensin II receptor (AT-1) type-1 (Rattus norvegicus, UniProt P29089+P25095)
# Sequence (P29089 whole entry): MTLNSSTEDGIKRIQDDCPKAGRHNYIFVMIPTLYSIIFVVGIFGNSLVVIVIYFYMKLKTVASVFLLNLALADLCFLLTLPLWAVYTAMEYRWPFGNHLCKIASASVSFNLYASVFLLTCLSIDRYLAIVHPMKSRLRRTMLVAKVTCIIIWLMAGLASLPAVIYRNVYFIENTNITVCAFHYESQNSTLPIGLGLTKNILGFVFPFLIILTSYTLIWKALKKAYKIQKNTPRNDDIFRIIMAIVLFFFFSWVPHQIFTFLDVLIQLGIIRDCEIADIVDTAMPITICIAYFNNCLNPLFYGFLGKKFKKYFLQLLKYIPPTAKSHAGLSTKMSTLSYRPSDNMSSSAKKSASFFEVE
# Sequence (P25095 whole entry): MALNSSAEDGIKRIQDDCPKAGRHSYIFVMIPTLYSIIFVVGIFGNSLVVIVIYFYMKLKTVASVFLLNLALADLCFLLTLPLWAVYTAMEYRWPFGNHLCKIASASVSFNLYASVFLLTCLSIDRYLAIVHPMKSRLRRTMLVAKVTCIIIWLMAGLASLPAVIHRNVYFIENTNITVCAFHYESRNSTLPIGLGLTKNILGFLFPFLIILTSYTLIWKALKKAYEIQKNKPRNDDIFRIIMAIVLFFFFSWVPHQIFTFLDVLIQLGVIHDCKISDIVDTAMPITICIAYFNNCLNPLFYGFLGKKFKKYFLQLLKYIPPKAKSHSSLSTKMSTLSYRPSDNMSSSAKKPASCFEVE
# test.details: Specific binding inhibition of [125I]AII to Angiotensin II receptor, type 1 in rat liver membrane
# Type: cell membranes
measured.property: IC50 (nM)

Use the examples below as a reference point.
compound=CCCCc1nc(SC)c(C(=O)OCC)n1Cc1ccc(-c2ccccc2S(=O)(=O)N(C)C(=O)NCCC)cc1 measured_on="Angiotensin II receptor (AT-1) type-1 (Rattus norvegicus, UniProt P29089+P25095)" measured_property=IC50 reported_measurement=78
compound=CCCCc1nc(SC)c(C(=O)O)n1Cc1ccc(-c2ccccc2S(=O)(=O)NS(=O)(=O)C(F)(F)F)cc1 measured_on="Angiotensin II receptor (AT-1) type-1 (Rattus norvegicus, UniProt P29089+P25095)" measured_property=IC50 reported_measurement=0.8
compound="CCCCc1nc([S+](C)[O-])c(C(=O)O)n1Cc1ccc(-c2ccccc2S(=O)(=O)NC(=O)NCCC)cc1 (centres undefined)" measured_on="Angiotensin II receptor (AT-1) type-1 (Rattus norvegicus, UniProt P29089+P25095)" measured_property=IC50 reported_measurement=3.1
compound=CCCCc1nc(C(=O)O)c(SC)n1Cc1ccc(-c2ccccc2S(=O)(=O)NC(=O)NCCC)cc1 measured_on="Angiotensin II receptor (AT-1) type-1 (Rattus norvegicus, UniProt P29089+P25095)" measured_property=IC50 reported_measurement=103
compound=CCCCc1nc(SC)c(C(=O)O)n1Cc1ccc(-c2ccccc2S(=O)(=O)NC(=O)OCC(C)C)cc1 measured_on="Angiotensin II receptor (AT-1) type-1 (Rattus norvegicus, UniProt P29089+P25095)" measured_property=IC50 reported_measurement=0.2

[a] CCCCc1nc(SC)c(C(=O)O)n1Cc1ccc(-c2ccccc2S(=O)(=O)NS(=O)(=O)CC)cc1
[b] CCCCc1nc(SC)c(CO)n1Cc1ccc(-c2ccccc2S(=O)(=O)NC(=O)NCCC)cc1
[c] CCCCc1nc(SC)c(C(=O)O)n1Cc1ccc(-c2ccccc2S(=O)(=O)NC(=O)CCC)cc1
Could you please order the items by IC50, going from the lowest number to the highest? A ranking is expressed here by listing the labels in the requested order.
c, a, b
(c: 0.2 nM, a: 1.1 nM, b: 4.5 nM)

[1] CCCCc1nc(SC(F)(F)F)c(C(=O)O)n1Cc1ccc(-c2ccccc2S(=O)(=O)NC(=O)NCCC)cc1
[2] CCCCc1nc(SCCCCOC(C)=O)c(C(=O)O)n1Cc1ccc(-c2ccccc2S(=O)(=O)NC(=O)NCCC)cc1
Which item exceeds the other in IC50, 1 or 2 ? // return label of chosen record
1

[I] CCCCc1nc(SC)c(C(=O)O)n1Cc1ccc(-c2ccccc2S(=O)(=O)NC(=O)NCc2cccnc2)cc1
[II] CCCCc1nc(SC)c(C(=O)NC)n1Cc1ccc(-c2ccccc2S(=O)(=O)NC(=O)NCCC)cc1
Between I and II , which one has the lower reported IC50 value? // respond with label for picked entry
I
(I: 0.9 nM, II: 2.1 nM)

[A] C=CCNC(=O)NS(=O)(=O)c1ccccc1-c1ccc(Cn2c(CCCC)nc(SC)c2C(=O)O)cc1
[B] CCCCc1nc(SC)c(C(=O)O)n1Cc1ccc(-c2ccccc2S(=O)(=O)NC(=O)NCCC)cc1
Which of these two has the smaller recorded IC50: A or B ? Mark your answer with the label of the selected entry.
B
